TEST METHOD NOTES: stability of 17 infused compounds in stored wristbands
Assay type: physicochemical
MEASUREMENT PARAMETERS: RSD across all time and temperature samples (−20° C., 4° C., 30° C.)
Where a name gives a salt, the structure may show the parent alone.
Class Met: Overall RSD from entire study to 28 days at least 30%. Class Not met: Overall RSD from entire study to 28 days below 30%.

Please review the following examples before continuing.
CCOP(=S)(OCC)Oc1nc(Cl)c(Cl)cc1Cl [chlorpyrifos] : Not met
O=S1(=O)OCC2C(CO1)C1(Cl)C(Cl)=C(Cl)C2(Cl)C1(Cl)Cl (stereo not shown) [endosulfan sulfate] : Not met
[2H]c1c([2H])c(Oc2ccc(Cl)cc2O)c(Cl)c([2H])c1Cl [triclosan-d3, reference compound] : Not met
O=C1C2CC3C1C1(Cl)C(Cl)C4(Cl)C2C3C1(Cl)C4(Cl)Cl (stereo not shown) [endrin Ketone] : Not met
[2H]c1c([2H])c2c([2H])c([2H])c3c([2H])c([2H])c([2H])c4c([2H])c([2H])c(c1[2H])c2c34 [pyrene-d10, reference compound] : Met

-- ask Confirm if Overall RSD from entire study to 28 days reported for the molecule [2H]c1c([2H])c([2H])c2c(c1[2H])C(=O)c1c([2H])c([2H])c([2H])c([2H])c1C2=O [Anthraquinone-d8, reference compound] is 30% or above.
-- reply Not met

-- ask Does the molecule [2H]c1c([2H])c([2H])c2c(c1[2H])-c1c([2H])c([2H])c([2H])c([2H])c1C2([2H])[2H] [fluorene-d10, reference compound] have recorded Overall RSD from entire study to 28 days that is 30% or more?
-- reply Not met

-- ask Given O=P(OC(CCl)CCl)(OC(CCl)CCl)OC(CCl)CCl [TCDPP, 1,3-dichloro-2-propyl phosphate] , state whether its Overall RSD from entire study to 28 days is at least 30%.
-- reply Not met

-- ask Check this molecule for Overall RSD from entire study to 28 days at or above 30%: [2H]c1c([2H])c([2H])c(-c2c(Cl)c(Cl)c(Cl)c(Cl)c2Cl)c([2H])c1[2H] [PCB-116-d5, reference compound]
-- reply Met

-- ask In plain terms: is recorded Overall RSD from entire study to 28 days at least 30% for CCCSP(=O)(OCC)SCCC [prophos/ethoprophos] ?
-- reply Not met

---

TEST METHOD NOTES: stability of 17 infused compounds in stored wristbands
Type: physicochemical
MEASUREMENT PARAMETERS: RSD of concentration (ng/mL), extraction immediately following infusion
// label = true (1) if Beginning RSD from starting time point is not less than 8%, otherwise false (0)

O=P(Oc1ccccc1)(Oc1ccccc1)Oc1ccccc1 [triphenyl phosphate] : false (0)
[2H]c1c([2H])c2c([2H])c([2H])c3c([2H])c([2H])c([2H])c4c([2H])c([2H])c(c1[2H])c2c34 [pyrene-d10, reference compound] : true (1)
O=C1C2CC3C1C1(Cl)C(Cl)C4(Cl)C2C3C1(Cl)C4(Cl)Cl (centres unmarked) : false (0)
CCOP(=S)(OCC)Oc1nc(Cl)c(Cl)cc1Cl : true (1)
[2H]c1c([2H])c(-c2cc(Cl)c(Cl)c(Cl)c2Cl)c([2H])c(Cl)c1Cl [PCB-156-d3, reference compound] : true (1)

-- ask API: above_or_equal(metric=Beginning RSD from starting time point, cutoff=8%) for item [2H]c1c([2H])c([2H])c2c(c1[2H])-c1c([2H])c([2H])c([2H])c([2H])c1C2([2H])[2H] [fluorene-d10, reference compound]
-- reply true (1)

-- ask Textbook exercise: given the entry O=P(OC(CCl)CCl)(OC(CCl)CCl)OC(CCl)CCl [TCDPP, 1,3-dichloro-2-propyl phosphate] , state whether its Beginning RSD from starting time point is greater than or equal to 8%.
-- reply true (1)

-- ask Does the reported Beginning RSD from starting time point for [2H]c1c([2H])c([2H])c(-c2c(Cl)c(Cl)cc(Cl)c2Cl)c([2H])c1[2H] [PCB-65-d5, reference compound] fall at or above the 8% mark?
-- reply true (1)

---

TEST METHOD NOTES: stability of 17 infused compounds in stored wristbands
Assay type: physicochemical
MEASUREMENT PARAMETERS: RSD of concentration (ng/mL), extraction immediately following infusion
In this section we review reported Beginning RSD from starting time point values for a set of compounds.

Below, each entry is followed by its recorded Beginning RSD from starting time point result.
[2H]c1c([2H])c([2H])c(-c2c(Cl)c(Cl)c(Cl)c(Cl)c2Cl)c([2H])c1[2H] [PCB-116-d5, reference compound] : 45%
Brc1ccc(Oc2ccc(Br)cc2Br)c(Br)c1 [PBDE 47] : 37%
Brc1cc(Br)c(Oc2cc(Br)c(Br)cc2Br)c(Br)c1 [PBDE 154] : 53%
[2H]c1c([2H])c(Oc2ccc(Cl)cc2O)c(Cl)c([2H])c1Cl [triclosan-d3, reference compound] : 9%

Now for the compound whose Beginning RSD from starting time point we want.
-- ask Give the reported Beginning RSD from starting time point for this compound. Brc1ccc(Oc2cc(Br)c(Br)cc2Br)c(Br)c1 [PBDE 99]
-- reply 46%

---

TEST METHOD NOTES: stability of 17 infused compounds in stored wristbands
Assay type: physicochemical
MEASUREMENT PARAMETERS: RSD across all time and temperature samples (−20° C., 4° C., 30° C.)
Classify as follows. Reported Overall RSD from entire study to 28 days greater than or equal to 40%: 1 (yes). Reported Overall RSD from entire study to 28 days below: 0 (no).

O=P(Oc1ccccc1)(Oc1ccccc1)Oc1ccccc1 [triphenyl phosphate] : 0 (no)
[2H]c1c([2H])c(-c2cc(Cl)c(Cl)c(Cl)c2Cl)c([2H])c(Cl)c1Cl [PCB-156-d3, reference compound] : 1 (yes)
Brc1ccc(Oc2ccc(Br)cc2Br)c(Br)c1 : 0 (no)
[2H]c1c([2H])c([2H])c(-c2c(Cl)c(Cl)cc(Cl)c2Cl)c([2H])c1[2H] [PCB-65-d5, reference compound] : 0 (no)
Brc1ccc(Oc2cc(Br)c(Br)cc2Br)c(Br)c1 : 1 (yes)

-- ask Record `Brc1cc(Br)c(Oc2cc(Br)c(Br)cc2Br)c(Br)c1` ; criterion: Overall RSD from entire study to 28 days no lower than 40%. Met?
-- reply 1 (yes)

---

Overview of recorded Beginning RSD from starting time point for various compounds
TEST METHOD NOTES: stability of 17 infused compounds in stored wristbands
Type: physicochemical
MEASUREMENT PARAMETERS: RSD of concentration (ng/mL), extraction immediately following infusion
Method: In another example, the stability of wristbands infused with 17 compounds of varied physiochemistry was studied for various combinations of times and temperatures. […] Twelve wristbands underwent solvent extraction and analysis immediately following infusion. The remaining wristbands were divided into three groups and one group of wristbands was stored at each of −20° C., 4° C., and 30° C. […]
Where a name gives a salt, the structure may show the parent alone.
Enter your answer as a number in %; do not include the unit.

O=S1(=O)OCC2C(CO1)C1(Cl)C(Cl)=C(Cl)C2(Cl)C1(Cl)Cl (stereo not drawn) [endosulfan sulfate] : 8

-- ask Given [2H]c1c([2H])c([2H])c2c(c1[2H])C(=O)c1c([2H])c([2H])c([2H])c([2H])c1C2=O [Anthraquinone-d8, reference compound] , respond with its Beginning RSD from starting time point.
-- reply 8

-- ask Give reported Beginning RSD from starting time point value for `CCCSP(=O)(OCC)SCCC`
-- reply 8
